As shown below, each of these compounds has a reported IC50 value.
Tested on: NCI-H460 non-small cell lung carcinoma
assay_details: Cytotoxicity assay, sulphorodamine B test, NCI-H460
Format: cell-based
condition_summary: Homo sapiens, NCI-H460; 72 h, sulphorodamine B

Some solved entries appear below for comparison.
CCNC(=O)c1nnn(-c2cc(C(C)C)c(O)cc2O)c1-c1ccc(CN2CCN(C)CC2)cc1 [Example 11] | < 50 nM
CC(C)c1cc(-n2nnc(C(=O)NC3CCCCC3)c2-c2ccc(CN3CCOCC3)cc2)c(O)cc1O [Example 29] | < 50 nM

Ask: API: value(readout=IC50, system=NCI-H460 non-small cell lung carcinoma) for record CCNC(=O)c1nnn(-c2cc(C(C)C)c(O)cc2O)c1-c1ccc(CNCCN(CC)CC)cc1 [Example 17]
Reply: 100 to 500 nM

Ask: Same for CCNC(=O)c1nnn(-c2cc(C(C)C)c(O)cc2O)c1Nc1ccc(N2CCOCC2)cc1 [Example 25]
Reply: 500 to 1000 nM

Ask: Let us now turn to CCNC(=O)c1nnn(-c2cc(C(C)C)c(O)cc2O)c1-c1ccc(CNC2CCCCC2)cc1 [Example 16]
Reply: < 50 nM

Ask: CCNC(=O)c1nnn(-c2cc(C(C)C)c(O)cc2O)c1-c1ccc(CN2CCCCC2)cc1 [Example 9] ?
Reply: < 50 nM

Ask: Also need CCNC(=O)c1nnn(-c2cc(C(C)C)c(O)cc2O)c1NCc1ccc(N2CCOCC2)cc1 [Example 26] , thanks.
Reply: 100 to 500 nM

Ask: Queued: CCNC(=O)c1nnn(-c2cc(C(C)C)c(O)cc2O)c1-c1ccc(CN2CCNCC2)cc1 [Example 12]
Reply: 100 to 500 nM

Ask: How about CCNC(=O)c1nnn(-c2cc(C(C)C)c(O)cc2O)c1-c1ccc(CN(CC)CC)cc1 [Example 10] ?
Reply: < 50 nM

Ask: What about CCNC(=O)c1nnn(-c2cc(C(C)C)c(O)cc2O)c1-c1ccc(CN(CC)CCO)cc1 [Example 7] ?
Reply: 50 to 100 nM

Ask: Same question for CCOC(=O)c1nnn(-c2cc(Cl)c(O)cc2O)c1-c1ccc(F)cc1 [Example 32, reference compound] please.
Reply: > 1000 nM

Ask: And what about the compound CCNC(=O)c1nnn(-c2cc(C(C)C)c(O)cc2O)c1-c1ccc(CN2CCCC(O)C2)cc1 (racemic) [Example 6] ?
Reply: 50 to 100 nM

Ask: Param item: CCNC(=O)c1nnn(-c2cc(C(C)C)c(O)cc2O)c1-c1ccc(CN2CCCCC2CCO)cc1 (stereo not shown) [Example 8]
Reply: 100 to 500 nM

Ask: Also CC(C)c1cc(-n2nncc2-c2ccc(CN3CCCC(O)C3)cc2)c(O)cc1O (stereo not shown) [Example 2] , if possible.
Reply: < 50 nM

Ask: Moving on to CCNC(=O)c1nnn(-c2cc(C(C)C)c(O)cc2O)c1-c1ccc(CNCC2CCCCC2)cc1 [Example 15]
Reply: < 50 nM

Ask: Follow-up item: CC(C)c1cc(-n2nnc(C(=O)NC3CCCC3)c2-c2ccc(CN3CCOCC3)cc2)c(O)cc1O [Example 28]
Reply: < 50 nM

Ask: Moving on to CC(C)c1cc(-n2nncc2-c2ccc(CN3CCOCC3)cc2)c(O)cc1O [Example 1]
Reply: 100 to 500 nM

Ask: Next: CC(C)c1cc(-n2nncc2-c2ccc(CN3CCN(c4ccccc4)CC3)cc2)c(O)cc1O [Example 4]
Reply: 500 to 1000 nM

Ask: And what about the compound CCNC(=O)c1nnn(-c2cc(C(C)C)c(O)cc2O)c1-c1ccc(CNCCCN(CC)CC)cc1 [Example 18] ?
Reply: 500 to 1000 nM

Ask: Consider next the compound CCNC(=O)c1nnn(-c2cc(C(C)C)c(O)cc2O)c1-c1ccc(CN2CC[C@H](N(C)C)C2)cc1 [Example 20] in the same way.
Reply: < 50 nM

Ask: Also CCNC(=O)c1nnn(-c2cc(C(C)C)c(O)cc2O)c1-c1ccc(CN2CCOCC2)cc1 [Example 5] ?
Reply: < 50 nM

Ask: Consider next the compound CCNC(=O)c1nnn(-c2cc(C(C)C)c(O)cc2O)c1-c1ccc(CN2CCC(N(C)C)CC2)cc1 [Example 13] in the same way.
Reply: 100 to 500 nM

###

Test system: A2780 ovarian
assay_details: Sulphorodamine B test at single concentration, A2780
Type: cell-based
condition_summary: Homo sapiens, 500 nM, 72 h
quantity_name: inhibition at 0.5 µM

Reference set (2 entries):
CCNC(=O)c1nnn(-c2cc(C(C)C)c(O)cc2O)c1-c1ccc(CN2CCC(N(C)C)CC2)cc1 | ≥ 50%
Oc1cc(O)c(-n2nncc2-c2ccc(F)cc2)cc1Cl [Example 33, reference compound] | < 30%

Ask: Param readout= inhibition at 0.5 µM; system= A2780 ovarian; entry= CCNC(=O)c1nnn(-c2cc(C(C)C)c(O)cc2O)c1-c1ccc(Cn2ccnc2)cc1 ; returns value.
Reply: ≥ 50%

###

System: NCI-H460 non-small cell lung carcinoma
assay_details: Cytotoxicity assay, sulphorodamine B test, NCI-H460
Format: cell-based
condition_summary: Homo sapiens, NCI-H460; 72 h, sulphorodamine B
quantity_name: IC50

Below: 3 compounds and their reported IC50.
CCNC(=O)c1nnn(-c2cc(C(C)C)c(O)cc2O)c1-c1ccc(CNCCN2CCOCC2)cc1 [Example 14] | 100 to 500 nM
CCCCCCNC(=O)c1nnn(-c2cc(C(C)C)c(O)cc2O)c1-c1ccc(CN2CCOCC2)cc1 [Example 27] | < 50 nM
Oc1cc(O)c(-n2nncc2-c2ccc(F)cc2)cc1Cl [Example 33, reference compound] | > 1000 nM

Then this compound:
Ask: IC50 of CC(C)c1cc(-n2nncc2-c2ccc(CN3CCN(Cc4ccccc4)CC3)cc2)c(O)cc1O [Example 3] on NCI-H460 non-small cell lung carcinoma?
Reply: 100 to 500 nM

###

Measured IC50 values are reported for all entries that follow.
study_target: Hsp90 (Homo sapiens, UniProt P07900)
Construct: purchased Stressgen SPP-776
assay_details: Fluorescence Polarization (FP) binding, GM-BODIPY displacement from Hsp90
condition_summary: GM-BODIPY tracer, 4° C. for 4 hours

Ask: Quick one: IC50 for CCNC(=O)c1nnn(-c2cc(C(C)C)c(O)cc2O)c1-c1ccc(CN2CCC(N(C)C)CC2)cc1 ?
Reply: < 50 nM

Ask: Then this compound: CCNC(=O)c1nnn(-c2cc(C(C)C)c(O)cc2O)c1-c1ccc(CN(CC)CC)cc1
Reply: < 50 nM

###

Below: a set of entries, each annotated with reported inhibition at 0.5 µM.
System: HCT116 colon
assay_details: Sulphorodamine B test at single concentration, HCT116
Format: cell-based
condition_summary: Homo sapiens, HCT-116; 500 nM, 72 h

Check out these entries, answers already filled in.
CCNC(=O)c1nnn(-c2cc(C(C)C)c(O)cc2O)c1-c1ccc(CN2CC[C@H](N(C)C)C2)cc1 [Example 20] | ≥ 50%
CCOC(=O)c1nnn(-c2cc(Cl)c(O)cc2O)c1-c1ccc(F)cc1 [Example 32, reference compound] | < 30%
CC(C)c1cc(-n2nncc2-c2ccc(CN3CCN(Cc4ccccc4)CC3)cc2)c(O)cc1O [Example 3] | ≥ 50%
CCNC(=O)c1nnn(-c2cc(C(C)C)c(O)cc2O)c1NCc1ccc(N2CCOCC2)cc1 [Example 26] | ≥ 50%

Ask: Give inhibition at 0.5 µM (HCT116 colon) of the following compound: CCNC(=O)c1nnn(-c2cc(C(C)C)c(O)cc2O)c1-c1ccc(CNCCN(CC)CC)cc1 [Example 17]
Reply: 30 to 50%

Ask: Lookup CCNC(=O)c1nnn(-c2cc(C(C)C)c(O)cc2O)c1-c1ccc(CN(CC)CCO)cc1 [Example 7]
Reply: ≥ 50%

Ask: And what about the compound CCNC(=O)c1nnn(-c2cc(C(C)C)c(O)cc2O)c1-c1ccc(CNCCN2CCOCC2)cc1 [Example 14] ?
Reply: 30 to 50%

Ask: Okay, and CCNC(=O)c1nnn(-c2cc(C(C)C)c(O)cc2O)c1-c1ccc(CN2CCN(C)CC2)cc1 [Example 11] ?
Reply: ≥ 50%

###

System: MDA-MB436 triple-negative breast
assay_details: Sulphorodamine B test at single concentration, MDA-MB436
Type: cell-based
condition_summary: Homo sapiens, MDA-MB-436; 500 nM, 72 h
List of inhibition at 0.5 µM values.

CCNC(=O)c1nnn(-c2cc(C(C)C)c(O)cc2O)c1-c1ccc(CNCC2CCCCC2)cc1 | ≥ 50%
CCNC(=O)c1nnn(-c2cc(C(C)C)c(O)cc2O)c1-c1ccc(CN2CC[C@H](N(C)C)C2)cc1 | ≥ 50%
CCNC(=O)c1nnn(-c2cc(C(C)C)c(O)cc2O)c1-c1ccc(CN2CCCC(O)C2)cc1 (racemic) | ≥ 50%
CCNC(=O)c1nnn(-c2cc(C(C)C)c(O)cc2O)c1-c1ccc(CN2CCCCC2)cc1 | ≥ 50%
CCNC(=O)c1nnn(-c2cc(C(C)C)c(O)cc2O)c1-c1ccc(CN(CC)CCO)cc1 | ≥ 50%

Let's switch to this compound now.
Ask: Look up inhibition at 0.5 µM: Oc1cc(O)c(-n2nncc2-c2ccc(F)cc2)cc1Cl [Example 33, reference compound]
Reply: < 30%
